- Study target: VIM-1 (Pseudomonas aeruginosa, UniProt A0A0F7KYQ8)
- Test summary: Enzyme activity: determination of IC50, fluorescence assay with CCF2-FA substrate
- Format: biochemical
- Experimental setup: VIM-1 enzyme 30 pM, CCF2-FA 1.25 μM, 2 hours at 25° C.; read-out: VIM1 IC50
Would you kindly list pIC50 for each of these molecules?
Value format note: pIC50 is -log10 of concentration (mol/L); just state the number.

Sure, the documented pIC50 for CCC[C@H](C(=O)O)[C@H](CCCc1ccc(N)nc1)c1nnn[nH]1 [Example 406] is 7.83

Sure, the documented pIC50 for CC(C)(C)[C@H](C(=O)O)[C@H](Cc1ccccc1)c1nnn[nH]1 [Example 258] is 7.00

Sure, the documented pIC50 for CCC[C@H](C(=O)O)[C@H](CCc1ccccc1)c1nnn[nH]1 [Example 266] is 7.70

Sure, the documented pIC50 for CCC[C@H](C(=O)O)[C@H](Cc1ccccc1-c1ccc(C2CCNCC2)cc1)c1nn[nH]n1 [Example 395] is 9.32
